# system: T1, FR3exFc (human)
# T1 construct: also called FGFR3/Fc; FR3/Fc
# T1 sequence (chain, as listed by the source limits assumed): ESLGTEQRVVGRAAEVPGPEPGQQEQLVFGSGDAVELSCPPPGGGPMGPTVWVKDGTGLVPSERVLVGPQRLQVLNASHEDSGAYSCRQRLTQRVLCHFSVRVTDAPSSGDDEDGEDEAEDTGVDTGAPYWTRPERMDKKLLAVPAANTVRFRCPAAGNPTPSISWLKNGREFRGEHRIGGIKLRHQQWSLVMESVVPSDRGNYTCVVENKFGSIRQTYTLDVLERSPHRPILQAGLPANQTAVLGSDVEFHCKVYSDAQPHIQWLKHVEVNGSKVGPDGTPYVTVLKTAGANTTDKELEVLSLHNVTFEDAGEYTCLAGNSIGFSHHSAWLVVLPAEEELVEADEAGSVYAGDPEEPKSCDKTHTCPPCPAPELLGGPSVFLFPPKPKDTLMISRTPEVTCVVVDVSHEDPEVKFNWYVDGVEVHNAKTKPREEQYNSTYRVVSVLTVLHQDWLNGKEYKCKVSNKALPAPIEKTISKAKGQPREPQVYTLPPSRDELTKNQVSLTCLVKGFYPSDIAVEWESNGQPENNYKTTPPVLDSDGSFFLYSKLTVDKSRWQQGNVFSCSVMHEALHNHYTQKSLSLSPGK
# assay.details: BIACORE
measured.quantity: koff (s⁻¹)
Answers are plain numbers, in s⁻¹.

{"binder": "MSPRO59 (Fab, V domains shown, HuCAL Fab, framework VH6_L3) VH: QVQLQQSGPGLVKPSQTLSLTCAISGDSVSSNSAAWNWIRQSPGRGLEWLGRTYYRSKWYNDYAVSVKSRITINPDTSKNQFSLQLNSVTPEDTAVYYCARSYYPDFDYWGQGTLVTVSS VL: DIELTQPPSVSVAPGQTARISCSGDALGDKYASWYQQKPGQAPVLVIYDDSDRPSGIPERFSGSNSGNTATLTISGTQAEDEADYYCQSYDGPDLWVFGGGTKLTVLG", "result.value": 0.00071}
{"binder": "MSPRO54 (Fab, V domains shown) VH: QVQLVQSGAEVKKPGASVKVSCKASGYTFTSYYMHWVRQAPGQGLEWMGWINPNSGGTNYAQKFQGRVTMTRDTSISTAYMELSSLRSEDTAVYYCARNMAYTNYQYVNMPHFDYWGQGTLVTVSS VL: DIELTQPPSVSVAPGQTARISCSGDALGDKYASWYQQKPGQAPVLVIYDDSDRPSGIPERFSGSNSGNTATLTISGTQAEDEADYYCQSYDYFKLVFGGGTKLTVLG", "result.value": 0.002}

Sure, the documented koff for MSPRO29 (Fab, V domains shown) VH: QVQLVQSGAEVKKPGASVKVSCKASGYTFTSYYMHWVRQAPGQGLEWMGWINPNSGGTNYAQKFQGRVTMTRDTSISTAYMELSSLRSEDTAVYYCARTWQYSYFYYLDGGYYFDIWGQGTLVTVSS VL: DIVLTQSPATLSLSPGERATLSCRASQSVSSSYLAWYQQKPGQAPRLLIYGASSRATGVPARFSGSGSGTDFTLTISSLEPEDFATYYCQQTNNAPVTFGQGTKVEIKR is 0.0014
